Exercise: for every item that follows, state its recorded polymerase ribozyme fitness (log ratio).
B1: TPR t1 (parent)
chain: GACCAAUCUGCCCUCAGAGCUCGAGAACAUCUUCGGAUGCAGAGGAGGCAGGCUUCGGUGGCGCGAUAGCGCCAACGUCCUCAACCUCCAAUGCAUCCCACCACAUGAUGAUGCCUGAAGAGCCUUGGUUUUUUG

- Variants of: B1
- run_description: polymerase ribozyme fitness, log enrichment relative to wild type (log ratio); higher = more active; in vitro selection for triplet polymerase activity
Give bare numbers.

Go through the items and report each one's polymerase ribozyme fitness (log ratio).
1. C20A C49G U106C
2. A50U C72U C73G G122A C124U

Out:
[-3.68, -0.982]

Go through the items and report each one's polymerase ribozyme fitness (log ratio).
1. U87A G120C U131G
2. G36C G44A G71U A75G C89A
3. A2G G57A C104A
4. C20U U38G C62G G120C

Out:
1.11
-4.65
-3.56
-4.8
